Test system: HS-PSS
Assay: drug sensitivity score (DSS, CellTiter-Glo viability, 72 h) (DSS (dimensionless)); higher = more sensitive; extreme values may be limits of the assay
quantity-kind: drug sensitivity score
The response must contain the number and no unit.

Enter drug sensitivity score (test system HS-PSS) for CC(=O)N(O)CCCCCNC(=O)CCC(=O)N(O)CCCCCNC(=O)CCC(=O)N(O)CCCCCN [Deferoxamine] (max concentration tested 10000 nM)
8.62

Provide measured drug sensitivity score on HS-PSS for COc1cc2ncnc(Nc3ccc(F)c(Cl)c3)c2cc1NC(=O)/C=C/CN1CCCCC1 [Dacomitinib] (max concentration tested 1000 nM) please.
3

Output reported drug sensitivity score of the compound CCC(C)n1ncn(-c2ccc(N3CCN(c4ccc(OCC5COC(Cn6cncn6)(c6ccc(Cl)cc6Cl)O5)cc4)CC3)cc2)c1=O (stereo unspecified) [Itraconazole] (max concentration tested 5000 nM) on HS-PSS.
4.25

Give drug sensitivity score; test system HS-PSS; compound CNC(=O)c1cccc(-c2ccc3c(N4CCOC[C@@H]4C)nc(N4CCOC[C@@H]4C)nc3n2)c1 [AZD2014] (max concentration tested 10000 nM)
10.4

Answer with drug sensitivity score of O=S(=O)(c1cccc2c(O)nccc12)N1CCCNCC1 [Hydroxyfasudil] (max concentration tested 37500 nM) measured for HS-PSS.
1.21

State drug sensitivity score (HS-PSS) of C[C@@H]1CN(CC(=O)Nc2ccc3c(c2)Cc2cccc(-c4cc(=O)cc(N5CCOCC5)o4)c2S3)C[C@H](C)O1 (max concentration tested 25000 nM) .
1.79

###

Task for the reader: assign each of the following molecules its reported relative IC50.
Tested on: HSC1
Assay: relative IC50 (inflection point of fitted dose-response curve, CellTox-Green cytotoxicity, 72 h; top asymptote may be below 50%); higher = less potent
Your answer is read as µM, so omit the unit and give the number.

Return reported relative IC50. Input molecule: O=C(Nc1c[nH]nc1-c1nc2ccc(CN3CCOCC3)cc2[nH]1)NC1CC1 [AT9283]
0.231

Return reported relative IC50. Input molecule: CCCCCCCCc1ccc(CCC(N)(CO)CO)cc1 [Fingolimod]
1.95

Indicate the recorded relative IC50 value for this molecule: CCN(CC)CCCC(C)Nc1ccnc2cc(Cl)ccc12 (stereo not given) [Chloroquine aq]
15.8

###

Tested on: HSC1 (primary human Schwann cells)
Assay: drug sensitivity score (DSS, CellTiter-Glo viability, 72 h) (DSS (dimensionless)); higher = more sensitive; extreme values may be limits of the assay
Provide the recorded drug sensitivity score for the entries that follow.
Could you keep your reply to the number by itself?

State drug sensitivity score (HSC1 (primary human Schwann cells)) of CN1CC[C@H](c2c(O)cc(O)c3c(=O)cc(-c4ccccc4Cl)oc23)[C@H](O)C1 [Alvocidib] (max concentration tested 10000 nM) .
18

Print HSC1 (primary human Schwann cells) drug sensitivity score for O=C(NC[C@H](O)CO)c1ccncc1Nc1ccc(I)cc1F [Pimasertib] (max concentration tested 10000 nM) .
7.67

Send back HSC1 (primary human Schwann cells) drug sensitivity score of COC(=O)c1ccc2c(c1)NC(=O)/C2=C(\Nc1ccc(N(C)C(=O)CN2CCN(C)CC2)cc1)c1ccccc1 [Nintedanib] (max concentration tested 10000 nM) only.
0

Retrieve drug sensitivity score on HSC1 (primary human Schwann cells); query Nc1ccn([C@@H]2O[C@H](CO)[C@@H](O)C2(F)F)c(=O)n1 [Gemcitabine] (max concentration tested 1000 nM)
26.5

Report drug sensitivity score from HSC1 (primary human Schwann cells) testing of Cc1sc2c(c1C)C(c1ccc(Cl)cc1)=N[C@@H](CC(=O)OC(C)(C)C)c1nnc(C)n1-2 [(+)JQ1] (max concentration tested 10000 nM)
10.2

Write drug sensitivity score of CC1(COc2ccc3c(c2)ncn3-c2ccc3cccc(N4CCC(N)CC4)c3n2)COC1 [Crenolanib] (max concentration tested 10000 nM) ; system used: HSC1 (primary human Schwann cells)
5.48

###

System: S1507-2
Test: relative IC50 (inflection point of fitted dose-response curve, CellTiter-Glo viability, 72 h; top asymptote may be below 50% inhibition); higher = less potent
I'd be grateful if you could share measured relative IC50 for these entries.
Give a bare numeral; the unit nM is implied.

Answer with the recorded relative IC50 for the compound listed here: CN[C@@H]1C[C@H]2O[C@@](C)([C@@H]1OC)n1c3ccccc3c3c4c(c5c6ccccc6n2c5c31)C(=O)N[C@H]4O [UCN-01]
19.3

For the compound CO[C@@H](C(=O)N1Cc2[nH]nc(NC(=O)c3ccc(N4CCN(C)CC4)cc3)c2C1)c1ccccc1 [Danusertib] , report relative IC50.
641

Give the reported relative IC50 for this compound. Nc1nc2[nH]cnc2c(=S)[nH]1 [Thioguanine]
2270

Recall and state the measured relative IC50 for CC(=O)[C@]1(O)Cc2c(O)c3c(c(O)c2[C@@H](O[C@H]2C[C@H](N)[C@H](O)[C@H](C)O2)C1)C(=O)c1ccccc1C3=O [Idarubicin] .
25.6

Quote relative IC50 reported for Cc1ccc(NC(=O)c2ccc(CN3CCN(C)CC3)cc2)cc1Nc1nc(-c2cccnc2)cs1 [Masitinib] please.
2060

Report relative IC50 for CC[C@@H]1C(=O)N(C)c2cnc(Nc3ccc(C(=O)N[C@H]4CC[C@H](N5CCN(CC6CC6)CC5)CC4)cc3OC)nc2N1C(C)C [Volasertib]
16.1

Kindly indicate its recorded relative IC50. Item: CN(C)C[C@@H]1CCn2cc(c3ccccc32)C2=C(C(=O)NC2=O)c2cn(c3ccccc23)CCO1 [Ruboxistaurin]
2170

Provide only the value of recorded relative IC50 for COc1cc(F)c(F)c(Nc2ccc(I)cc2F)c1NS(=O)(=O)C1(C[C@H](O)CO)CC1 [Refametinib]
362

Please indicate relative IC50 recorded for COC(=O)C[C@](O)(CCCC(C)(C)O)C(=O)O[C@@H]1C(OC)=C[C@]23CCCN2CCc2cc4c(cc2[C@H]13)OCO4 [Omacetaxine]
66.1

Recall and state the measured relative IC50 for CNC(=O)c1cccc(-c2ccc3c(N4CCOC[C@@H]4C)nc(N4CCOC[C@@H]4C)nc3n2)c1 [AZD2014] .
335

###

Tested on: ST8814
Assay: drug sensitivity score (DSS, CellTox-Green cytotoxicity, 72 h) (DSS (dimensionless)); higher = more cytotoxic; extreme values may be limits of the assay
Give drug sensitivity score for every item shown.
When you answer, write just the number.

Give recorded drug sensitivity score. COC(=O)C[C@](O)(CCCC(C)(C)O)C(=O)O[C@@H]1C(OC)=C[C@]23CCCN2CCc2cc4c(cc2[C@H]13)OCO4 [Omacetaxine] (max concentration tested 10000 nM)
5

Give a short answer stating reported drug sensitivity score for CC1(COc2ccc3c(c2)ncn3-c2ccc3cccc(N4CCC(N)CC4)c3n2)COC1 [Crenolanib] (max concentration tested 10000 nM) .
7.03

Provide drug sensitivity score value for the following compound: Nc1nc(NC2CC2)cc(-c2cccc(Cl)c2Cl)n1 [TH588] (max concentration tested 25000 nM)
7.43

Return drug sensitivity score for the following compound: COc1cc(F)c(F)c(Nc2ccc(I)cc2F)c1NS(=O)(=O)C1(C[C@H](O)CO)CC1 [Refametinib] (max concentration tested 10000 nM)
8.62

Tell us which drug sensitivity score value is on record for CC[C@@H]1C(=O)N(C)c2cnc(Nc3ccc(C(=O)NC4CCN(C)CC4)cc3OC)nc2N1C1CCCC1 [BI 2536] (max concentration tested 1000 nM)
19.5

Name the recorded drug sensitivity score of the item O=C(Nc1cccnc1)N1CCC(Cc2cccc(Oc3ccc(C(F)(F)F)cn3)c2)CC1 [PF-3845] (max concentration tested 10000 nM) in your answer.
0

Retrieve drug sensitivity score measured for O=C(CCCCCCC(=O)Nc1ccccc1)NO [Vorinostat] (max concentration tested 10000 nM) and print it.
5.36

Return reported drug sensitivity score. Input compound: O=C(O)CCCCC(CCSCc1ccccc1)SCc1ccccc1 (stereo not drawn) [CPI-613] (max concentration tested 10000 nM)
0

Give drug sensitivity score for the following compound: CS(=O)(=O)c1ccc(C2=C(c3ccccc3)C(=O)OC2)cc1 [Rofecoxib] (max concentration tested 10000 nM)
0

Identify the reported drug sensitivity score for the following entry. CCCCCCCCCCCCCCCCCCOP(=O)([O-])OC1CC[N+](C)(C)CC1 [Perifosine aq/PBS] (max concentration tested 2500 nM)
0.404

Quote drug sensitivity score reported for CN1CCN(c2nc(C3=C(c4c[nH]c5ccccc45)C(=O)NC3=O)c3ccccc3n2)CC1 [Sotrastaurin] (max concentration tested 10000 nM) please.
0

Give me measured drug sensitivity score, please, for this compound: CC(C)Cn1cnc2c(N)nc3ccccc3c21 [Imiquimod] (max concentration tested 2500 nM)
0

Consider the compound NC(=O)NO [Hydroxyurea] (max concentration tested 100000 nM) and give its recorded drug sensitivity score.
0

###

Test system: S462
Experiment: drug sensitivity score (DSS, CellTiter-Glo viability, 72 h) (DSS (dimensionless)); higher = more sensitive; extreme values may be limits of the assay
Hi there, I'd appreciate the recorded drug sensitivity score for every entry that follows.

Look up and report measured drug sensitivity score for this entry: NC(=O)NO [Hydroxyurea] (max concentration tested 100000 nM)
0

Give me measured drug sensitivity score, please, for this compound: CO[C@H](C(=O)[C@@H](O)[C@@H](C)O)[C@@H]1Cc2cc3cc(O[C@H]4C[C@@H](O[C@H]5C[C@@H](O)[C@H](O)[C@@H](C)O5)[C@@H](O)[C@@H](C)O4)c(C)c(O)c3c(O)c2C(=O)[C@H]1O[C@H]1C[C@@H](O[C@H]2C[C@@H](O[C@H]3C[C@](C)(O)[C@H](O)[C@@H](C)O3)[C@H](O)[C@@H](C)O2)[C@H](O)[C@@H](C)O1 [Plicamycin] (max concentration tested 10000 nM)
24.3

Entry O=C(Nc1c[nH]nc1-c1nc2ccc(CN3CCOCC3)cc2[nH]1)NC1CC1 [AT9283] (max concentration tested 1000 nM) needs its drug sensitivity score filled in; supply it.
8.75

Consider the compound Oc1ccc2c(c1)CC[C@H](c1ccccc1)[C@@H]2c1ccc(OCCN2CCCC2)cc1 [Lasofoxifene] (max concentration tested 1000 nM) and give its recorded drug sensitivity score.
0.222

State its drug sensitivity score: CO[C@H]1C[C@@H]2CC[C@@H](C)[C@@](O)(O2)C(=O)C(=O)N2CCCC[C@H]2C(=O)O[C@H]([C@H](C)C[C@@H]2CC[C@@H](OP(C)(C)=O)[C@H](OC)C2)CC(=O)[C@H](C)/C=C(\C)[C@@H](O)[C@@H](OC)C(=O)[C@H](C)C[C@H](C)/C=C/C=C/C=C/1C [Ridaforolimus] (max concentration tested 100 nM)
8.13

Identify measured drug sensitivity score corresponding to CN1CCC(COc2cnc(-c3cccc(Cn4nc(-c5cccc(C#N)c5)ccc4=O)c3)nc2)CC1 (max concentration tested 1000 nM)
2.88

Specify drug sensitivity score for CC(O)(CS(=O)(=O)c1ccc(F)cc1)C(=O)Nc1ccc(C#N)c(C(F)(F)F)c1 (stereo not given) [Bicalutamide] (max concentration tested 10000 nM) and stop.
0.149

Item Cn1cc(C[C@@H](N)C(=O)O)c2ccccc21 [1-methyl-D-tryptophan aq] (max concentration tested 5000 nM) : provide drug sensitivity score
0

Fill in drug sensitivity score for record O=C(CCCCCCC(=O)Nc1ccccc1)NO [Vorinostat] (max concentration tested 10000 nM)
7.84

Specify reported drug sensitivity score for the compound shown: Cc1ccc(-n2nc(C(C)(C)C)cc2NC(=O)Nc2ccc(OCCN3CCOCC3)c3ccccc23)cc1 [Doramapimod] (max concentration tested 10000 nM)
0.326
